- study_system: human Dopamine Receptor D2 (DRD2), DRD2 (gene 1813)
- assay_text: NVS_GPCR_hDRD2s: NovaScreen (NVS) G Protein-Coupled Receptor Assay for human Dopamine Receptor D2 (DRD2) (AID 2283266)
Results filed as inconclusive are left out. The source made the active and inactive calls. The calls were made as follows: active = hit-call score of the fitted dose curve at least 0.9, where 1 is the maximum; inconclusive = response in the unintended direction; inactive = score below 0.9.
property: AC50

[[record]]
cpd_smiles = "Cc1cc2c(cc1C(F)(F)F)N(C(=O)Nc1ccc(Oc3cccnc3C)nc1)CC2"
property = "AC50"
test_value = "48.6 nM (active)"

[[record]]
cpd_smiles = "COc1ccc2cc(S(=O)(=O)N[C@H](CC(=O)N[C@H](Cc3ccc(CN4[C@H](C)CCC[C@@H]4C)cc3)C(=O)N(C)C(C)C)c3ccc4c(c3)OCO4)ccc2c1"
property = "AC50"
test_value = "inactive"

[[record]]
cpd_smiles = "O=C1CCC(C2CCCCC2)CC1"
property = "AC50"
test_value = "inactive"

[[record]]
cpd_smiles = "COc1cc(C(=O)NC2CCN(C)CC2)ccc1Nc1ncc2c(n1)N(C1CCCC1)CC(F)(F)C(=O)N2C"
property = "AC50"
test_value = "inactive"


====

- Read-out: Monocyte Chemoattractant Protein-1 (MCP1), CCL2 (gene 6347)
- assay_text: BSK_4H_MCP1: BioMAP Diversity Plus: 4H Assay for Monocyte Chemoattractant Protein-1 (MCP1) Biomarker Activity (AID 2283018)
- run_conditions: primary human endothelial cells (HUVEC); actives raise or lower the signal
- Description: BSK_4H is a cell-based, multiplexed-readout assay that uses umbilical vein endothelium, a human vascular primary cell, with measurements taken at 24 hours after chemical dosing in a 96-well plate.BSK_4H_MCP1 is an assay component measured in the BSK_4H assay. It measures MCP-1 antibody related to regulation of gene expression using ELISA technology.Data from the assay component BSK_4H_MCP1 was analyzed into 1 assay endpoint. […]
Calls of active or inactive are those of the source. Rule for the calls: active = hit-call score of the fitted dose curve at least 0.9, where 1 is the maximum; inactive = score below 0.9.
Just give me one of these, please: active, inactive

INPUT: Identify the outcome logged in this assay for the compound shown: CCCC(=O)OCCC(C)C
OUTPUT: inactive

INPUT: Further, for CN1C(=O)N(c2ccccc2Br)Cc2cnc(Nc3ccc4c(c3)OCC(CO)O4)nc21 (stereo not given) ?
OUTPUT: active

INPUT: Would you kindly repeat that for CC(C)(O)c1ccc(CNC(=O)c2cccnc2Oc2ccc3nonc3c2)cc1 ?
OUTPUT: inactive

INPUT: Next up: c1ccc2n[nH]nc2c1
OUTPUT: inactive

INPUT: Another compound: CC/C(=C(/CC)c1ccc(O)cc1)c1ccc(O)cc1
OUTPUT: active

INPUT: Another compound to look at: COc1cccc([C@H](O)C2CCN(CCc3ccc(F)cc3)CC2)c1OC
OUTPUT: inactive

INPUT: Likewise for CO[C@H]1/C=C/O[C@@]2(C)Oc3c(C)c(O)c4c(O)c(c(/C=N/N5CCN(C)CC5)c(O)c4c3C2=O)NC(=O)/C(C)=C\C=C\[C@H](C)[C@H](O)[C@@H](C)[C@@H](O)[C@@H](C)[C@H](OC(C)=O)[C@@H]1C ?
OUTPUT: inactive

INPUT: Now consider CCN(CC)C(=O)c1cc(S(=O)(=O)Cc2ccccc2)c(N2CCC(c3ccccc3)CC2)cc1N(CC)CCN(C)C and answer again.
OUTPUT: active

INPUT: Try this compound next: CC(=O)N1CCN(c2ccc(OC[C@H]3CO[C@](Cn4ccnc4)(c4ccc(Cl)cc4Cl)O3)cc2)CC1
OUTPUT: active

INPUT: Moving on to O=C(OCCCCCCOC(=O)c1ccccc1)c1ccccc1
OUTPUT: inactive

====

- study_system: human Colony Stimulating Factor 1 Receptor (CSF1R), CSF1R (gene 1436)
- assay_text: NVS_ENZ_hCSF1R: NovaScreen (NVS) Enzymatic Assay for human Colony Stimulating Factor 1 Receptor (CSF1R) (AID 2283150)
Results filed as inconclusive are left out. Calls of active or inactive are those of the source. How the source made its calls: active means hit-call score of the fitted dose curve at least 0.9, where 1 is the maximum; inconclusive means response in the unintended direction; inactive means score below 0.9.
Can you answer with just one of these options? YES for active, NO for inactive

INPUT: GET /call?item= Cc1oc2c(NC(=O)c3c(Cl)cccc3Cl)cccc2c1C(C)(C)O returns the recorded outcome of this test.
OUTPUT: NO

INPUT: Would you mind doing CCN(Cc1cccc(S(=O)(=O)O)c1)c1ccc(C(=C2C=CC(=[N+](CC)Cc3cccc(S(=O)(=O)O)c3)C=C2)c2ccccc2S(=O)(=O)[O-])cc1 as well?
OUTPUT: YES

INPUT: How about O=C(O)Cc1cc(I)c(Oc2ccc(O)c(I)c2)c(I)c1 ?
OUTPUT: NO

INPUT: One more compound: CCCC(=O)OCCC(C)C
OUTPUT: NO

INPUT: Similarly, C[C@]12CC[C@@H]3c4ccc(O)cc4CC[C@H]3[C@@H]1CC[C@H]2O ?
OUTPUT: NO

====

- assay_text: APR_HepG2_StressKinase_24hr: Apredica 24-hour HepG2 Assay for Stress Kinase (AID 2282922)
- run_conditions: HepG2 stress kinase (phospho-c-Jun) imaging, actives raise or lower the signal
Activity calls are given as the source filed them. Rule for the calls: active = hit-call score of the fitted dose curve at least 0.9, where 1 is the maximum; inactive = score below 0.9.
Respond using exactly one of the listed classes: active, inactive

INPUT: Status in this test for OC12N=C(c3ccccc3)SC1Cc1cc(Cl)ccc12 (centres undefined) ?
OUTPUT: inactive

INPUT: Then what about the compound CCCCCCCCCCCC[N+](C)(C)C ?
OUTPUT: inactive

INPUT: Then this compound: CCCCOC(=O)c1ccc(O)cc1
OUTPUT: inactive

INPUT: Quick one: CN1C(=O)CC[C@H]1c1cccnc1
OUTPUT: inactive

INPUT: Would you kindly repeat that for NCc1cccc(C2CCN(C(=O)c3ccc(C#Cc4ccccc4F)o3)CC2)c1 ?
OUTPUT: inactive

INPUT: Now this one: COc1cc(C(=O)NC2CCN(C)CC2)ccc1Nc1ncc2c(n1)N(C1CCCC1)CC(F)(F)C(=O)N2C
OUTPUT: inactive

INPUT: Try this compound too: Cc1cc(F)ccc1-c1cc(N2CC[C@@H](O)[C@H]2CO)ncc1N(C)C(=O)C(C)(C)c1cc(C(F)(F)F)cc(C(F)(F)F)c1
OUTPUT: inactive

INPUT: What about this compound? CCN(CC)C(=O)c1cc(S(=O)(=O)Cc2ccccc2)c(N2CCC(c3ccccc3)CC2)cc1N(CC)CCN(C)C
OUTPUT: inactive

INPUT: Same lookup for CCCCCCCCCC(=O)O , please.
OUTPUT: inactive

INPUT: Would you mind doing Cc1ccc(C(C)C)cc1 as well?
OUTPUT: inactive

INPUT: Queued: Cc1cc2c(cc1C(F)(F)F)N(C(=O)Nc1ccc(Oc3cccnc3C)nc1)CC2
OUTPUT: active

INPUT: Field entry: CO[C@H]1/C=C/O[C@@]2(C)Oc3c(C)c(O)c4c(O)c(c(/C=N/N5CCN(C)CC5)c(O)c4c3C2=O)NC(=O)/C(C)=C\C=C\[C@H](C)[C@H](O)[C@@H](C)[C@@H](O)[C@@H](C)[C@H](OC(C)=O)[C@@H]1C
OUTPUT: inactive

INPUT: Param item: CN(C)C(=O)C1(N2CCCCC2)CCN(CC[C@@]2(c3ccc(Cl)c(Cl)c3)CN(C(=O)c3ccccc3)CCO2)CC1
OUTPUT: inactive

INPUT: Then CC(C)(O)c1ccc(CNC(=O)c2cccnc2Oc2ccc3nonc3c2)cc1 ?
OUTPUT: inactive

INPUT: Likewise for O=C(O)c1ccccc1C(=O)OCc1ccccc1 ?
OUTPUT: inactive

INPUT: Please answer likewise for CN1C(=O)N(c2ccccc2Br)Cc2cnc(Nc3ccc4c(c3)OCC(CO)O4)nc21 (centres undefined)
OUTPUT: inactive

INPUT: Now the same for CCCCCCCCOc1ccc(C(=O)c2ccccc2)c(O)c1
OUTPUT: inactive

INPUT: Please give the result for O=C(OCCCCCCOC(=O)c1ccccc1)c1ccccc1 too.
OUTPUT: inactive

INPUT: Do the same for Clc1ccccc1C(c1ccccc1)(c1ccccc1)n1ccnc1 please
OUTPUT: active

INPUT: Please give the result for CC1(C)NC(=O)N(c2ccc([N+](=O)[O-])c(C(F)(F)F)c2)C1=O too.
OUTPUT: inactive

INPUT: One more compound: O=C(Nc1ccc(Cl)cc1)Nc1ccc(Cl)c(Cl)c1
OUTPUT: inactive

INPUT: Same for CC(=O)N1CCN(c2ccc(OC[C@H]3CO[C@](Cn4ccnc4)(c4ccc(Cl)cc4Cl)O3)cc2)CC1
OUTPUT: active

INPUT: Same question, CCN(Cc1cccnc1)C(=O)c1cccc(Cl)c1[C@]1(C)C(=O)N(Cc2ccc(OC)cc2OC)c2ccc(Cl)cc21 this time
OUTPUT: inactive

INPUT: CCCCCCCCN(C)CCCCCCCC ?
OUTPUT: inactive

INPUT: Repeat with CCO[Si](CCCNC(N)=O)(OCC)OCC
OUTPUT: inactive

INPUT: And c1ccc(C[n+]2cccc3ccccc32)cc1 ?
OUTPUT: inactive

INPUT: Repeat for the following compound: Cc1occc1C(=O)Nc1ccc(C(=O)N2CCC(F)(F)/C(=C\C(=O)N3CCC(N4CCCCC4)CC3)c3ccccc32)cc1
OUTPUT: inactive

INPUT: What do you get for CN(C[C@@H](CC[N+]12CCC(C3CCCCC3)(CC1)CC2)c1ccc(Cl)c(Cl)c1)C(=O)c1cc(C(F)(F)F)cc(C(F)(F)F)c1 ?
OUTPUT: inactive

INPUT: Continue with O=C1O[C@H]([C@@H](O)CO)C(O)=C1O
OUTPUT: inactive

INPUT: Subsequent entry: CCCCCCCCOC(=O)c1cc(O)c(O)c(O)c1
OUTPUT: active

INPUT: Also, CCCCCc1ccc(N)cc1 please.
OUTPUT: inactive

INPUT: Queued: c1ccc2n[nH]nc2c1
OUTPUT: inactive

INPUT: Moving on to the next compound: CCOC(=O)O[C@H](C)OC(=O)c1ccc2c(c1)cc(C(=O)NC1CCN(C(C)C)CC1)n2Cc1cc(-c2ccc(Cl)s2)on1
OUTPUT: inactive

INPUT: And then CC(O)CC(C)(C)O (centres undefined) , what is it?
OUTPUT: inactive
